Target: T1, mouse PRLR on HEK293/mPRLR cells (Mus musculus, UniProt Q08501)
T1 construct: HA; expressed in transfected cells; host or cells: HEK293
T1 sequence (Q08501 20-608): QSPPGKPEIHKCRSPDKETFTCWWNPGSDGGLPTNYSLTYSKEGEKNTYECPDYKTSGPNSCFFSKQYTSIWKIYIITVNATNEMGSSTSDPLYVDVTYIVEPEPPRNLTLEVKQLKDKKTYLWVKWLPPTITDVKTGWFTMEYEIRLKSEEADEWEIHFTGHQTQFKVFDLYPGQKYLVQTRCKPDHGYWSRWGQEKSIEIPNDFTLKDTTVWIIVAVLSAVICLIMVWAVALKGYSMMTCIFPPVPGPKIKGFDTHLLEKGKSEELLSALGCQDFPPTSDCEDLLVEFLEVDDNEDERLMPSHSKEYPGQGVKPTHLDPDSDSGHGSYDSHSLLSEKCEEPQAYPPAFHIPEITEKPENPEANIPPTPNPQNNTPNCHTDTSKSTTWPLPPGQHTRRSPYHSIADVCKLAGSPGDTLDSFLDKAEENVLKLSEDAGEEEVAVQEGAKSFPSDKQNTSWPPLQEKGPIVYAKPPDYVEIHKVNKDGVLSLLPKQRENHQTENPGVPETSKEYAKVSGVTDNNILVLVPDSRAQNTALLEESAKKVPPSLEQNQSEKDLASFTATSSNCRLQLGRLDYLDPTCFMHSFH
Experiment: FACS cell surface binding
MEASUREMENT_NAME: FACS Cell Binding (Fold Above Background)
Dear colleague, please return just the value in Fold Above Background, with no unit written.

molecule="H1H6966N: anti-PRLR antibody, human IgG1 Fc form of H2M6966N of Table 1; HCVR/LCVR SEQ ID NOs 338/346 (antibody, V domains shown, human IgG1 Fc) VH: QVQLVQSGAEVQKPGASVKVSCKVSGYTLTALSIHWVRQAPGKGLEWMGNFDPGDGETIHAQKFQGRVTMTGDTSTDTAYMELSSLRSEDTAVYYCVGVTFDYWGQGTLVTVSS VL: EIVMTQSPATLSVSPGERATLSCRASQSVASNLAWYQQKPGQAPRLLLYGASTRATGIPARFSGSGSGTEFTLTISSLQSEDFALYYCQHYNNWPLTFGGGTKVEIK" readout_units="Fold Above Background" observed_measurement=1

The molecule listed as H1H6958N2: anti-PRLR antibody, receptor blocking, human IgG1 Fc form of H2M6958N2 of Table 1; HCVR/LCVR SEQ ID NOs 290/298 (antibody, V domains shown) VH: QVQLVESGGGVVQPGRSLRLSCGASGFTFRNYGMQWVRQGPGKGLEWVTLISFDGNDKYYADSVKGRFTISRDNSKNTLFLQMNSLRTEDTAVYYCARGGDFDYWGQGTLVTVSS VL: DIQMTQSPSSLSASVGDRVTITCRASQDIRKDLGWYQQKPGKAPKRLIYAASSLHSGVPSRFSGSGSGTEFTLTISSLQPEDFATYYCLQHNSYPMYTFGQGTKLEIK shows FACS Cell Binding equal to 1
